RUN DESCRIPTION: TOX21_TRB_BLA_Antagonist_Followup_viability: Viability Assessment in the Tox21 Thyroid Hormone Receptor beta Antagonism Beta-lactamase (BLA) Follow-Up Assay (AID 2283961)
Results filed as inconclusive are left out. Calls of active or inactive are those of the source. How the source made its calls: active means hit-call score of the fitted dose curve at least 0.9, where 1 is the maximum; inconclusive means response in the unintended direction; inactive means score below 0.9.
Give your call using only these classes: 1 (yes) (active), 0 (no) (inactive)

COMPOUND	ASSIGNED LABEL
COc1cc([C@@H]2c3cc4c(cc3[C@@H](O)[C@H]3COC(=O)[C@H]23)OCO4)cc(OC)c1O	0 (no)
CCN(CC)CCO[C@H]1CC[C@@]2(C)C(=CC[C@@H]3[C@@H]2CC[C@]2(C)C(=O)CC[C@@H]32)C1	0 (no)
O=c1oc2ccccc2c(O)c1Cc1c(O)c2ccccc2oc1=O	0 (no)
COC1=CC(=O)O[C@@H](/C=C/c2ccc3c(c2)OCO3)C1	0 (no)

Please find the next compound below.
Called result for CN1C(=O)[C@@H](NC(=O)c2cc3ccccc3[nH]2)N=C(c2ccccc2)c2ccccc21
0 (no)

----------
RUN DESCRIPTION: IUF_NPC4_neurite_area_120hr: Leibniz Research Institute for Environmental Medicine (IUF) 120-hour Neuronal Morphology Assay for Neurite Area (NPC4) (AID 2284305)
Experimental: IUF_NPC2-5 is a cell-based, multiplexed assay that uses hNPC, a human primary neural progenitor cells, with measurements taken at 72 or 120 hours after chemical dosing in a 96-well plate. […] The processes radial glia migration, neuronal and oligodendrocyte migration as well as neuronal differentiation, neuronal morphology and oligodendrocyte differentiation are studied using automated phase contrast imaging and automated fluorescence imaging in combination with high content image analysis. […]
Records with an inconclusive call do not appear. Active and inactive are the calls of the source. Rule for the calls: active = hit-call score of the fitted dose curve at least 0.9, where 1 is the maximum; inconclusive = response in the unintended direction; inactive = score below 0.9.
READOUT NAME: AC50

COMPOUND	READOUT NAME	VALUE MEASURED
Cn1nc(C(F)(F)F)c(CS(=O)(=O)C2=NOC(C)(C)C2)c1OC(F)F	AC50	50.1 µM (active)
CC(C)CC(C)c1sccc1NC(=O)c1cn(C)nc1C(F)(F)F (centres undefined)	AC50	inactive
CP(=O)(O)CCC(N)C(=O)O (centres undefined)	AC50	inactive
O=C1N[C@@H]2C(=C[C@H](O)[C@@H](O)[C@H]2O)c2cc3c(c(O)c21)OCO3	AC50	0.00933 µM (active)

----------
RUN DESCRIPTION: ATG_BRE_CIS: Attagene CIS-FACTORIAL HepG2 Assay for human Bone Morphogenetic Protein (BMP) Response Element (BRE) (AID 2282933)
TEST PARAMETERS: HepG2 BMP response element reporter, Attagene transcription factor profiling; actives raise or lower the signal
Procedure: ATG_CIS is a cell-based, multiplexed-readout assay that uses HepG2, a human liver cell line, with measurements taken at 24 hours after chemical dosing in a 24-well plate.ATG_BRE_CIS is one of 52 assay component(s) measured or calculated from the ATG_CIS assay. […] This assay endpoint, ATG_BRE_CIS, was analyzed with bidirectional fitting relative to DMSO as the negative control and baseline of activity. […]
The source made the active and inactive calls. How the source made its calls: active means hit-call score of the fitted dose curve at least 0.9, where 1 is the maximum; inactive means score below 0.9.
Hi! Could you answer with just one of these? active, inactive

For O=c1[nH]c(Cl)c(Cl)cc1Cl , what call appears in the results of this test?
inactive

O=[N+]([O-])C=Cc1ccccc1 , same question.
active

And then CCc1cc(C)cc(CC)c1-c1c(OC(=O)C(C)(C)C)n2n(c1=O)CCOCC2 , what is it?
inactive

Another compound to look at: COc1ccc(CO)cc1
inactive

Entry COC(C)(C)CCC[C@H](C)C/C=C/C(C)=C/C(=O)OC(C)C please
active

Let us now turn to CC1(C)C(=O)NC(=O)NC1=O
inactive

Also c1cc(OCC2CO2)ccc1Cc1ccc(OCC2CO2)cc1 (stereo not given) ?
inactive

Lookup O=[N+]([O-])O
inactive

Same thing, different compound: c1ccc(P(c2ccccc2)c2ccccc2)cc1
inactive
